Parameter IC50: see the listing below.
Tested on: IL-2 stimulated pSTAT5 in Tall-1 T cells
Assay: Cellular JAK3 potency assay: inhibition of IL-2 stimulated pSTAT5 in Tall-1 T cells
Format: cell-based, human
Conditions: Homo sapiens, TALL-1, IL-2 stimulated pSTAT5 in Tall-1 T cells; read-out: Tall-1 (pIC50) (converted)
Procedure: The potency of test compounds for inhibition of interleukin-2 (IL-2) stimulated STAT5 phosphorylation was measured in the Tall-1 human T cell line (DSMZ) using AlphaLisa. […] Compounds were serially diluted in DMSO and dispensed acoustically to empty wells. […] Phosphorylated STAT5 was measured via the pSTAT5 AlphaLisa kit (PerkinElmer). […] To determine the inhibitory potency of test compounds in response to IL-2, the average emission intensity of beads bound to pSTAT5 was measured in a human T cell line. […]

Below are worked cases with known answers.
// fetch IL-2 stimulated pSTAT5 in Tall-1 T cells IC50 for `C=CC(=O)N1CC(COc2nc(-c3ccc(O)c(F)c3)cc3[nH]ncc23)C1` < 31.6 nM

What about `CN(C)C/C=C/C(=O)N1CC(F)(COc2cc(-c3ccc(O)c(F)c3)nc3[nH]ncc23)C1` ? 31.6 to 200 nM

Shifting focus to the molecule that follows.
Lab request: please report IC50 under test system IL-2 stimulated pSTAT5 in Tall-1 T cells for `CC(C)N(C)C/C=C/C(=O)N1CC(COc2cc(-c3ccc(O)cc3)cc3[nH]ncc23)C1` < 31.6 nM

Origin of the recorded values: patent US10392368B2
